tested on: LCLC-97TM1; test: relative viability (nuclei count vs DMSO), 5 days (fraction); higher = more cells survive; conditions: first compound 6.325 µM
Observable: relative viability
Form: value (number only, do not type unit).

The cases that follow already have their relative viability on record.
# Compound, Target of assay, Recorded measurement
rows = [
    ("Cc1csc(=NC2CCCCC2)n1/N=C/c1ccc(O)c(O)c1O [MIM1] + C[C@@H](Oc1cc(-c2cnn(C3CCNCC3)c2)cnc1N)c1c(Cl)ccc(F)c1Cl [Crizotinib] (partner 1 µM)", "LCLC-97TM1", 0.214),
    ("Cc1csc(=NC2CCCCC2)n1/N=C/c1ccc(O)c(O)c1O [MIM1] + C[C@]1(O)C[C@@H](c2nc(-c3ccc4ccc(-c5ccccc5)nc4c3)c3c(N)nccn32)C1 [Linsitinib] (partner 1 µM)", "LCLC-97TM1", 0.207),
    ("Cc1csc(=NC2CCCCC2)n1/N=C/c1ccc(O)c(O)c1O [MIM1] + CC(=O)Nc1cccc(-n2c(=O)n(C3CC3)c(=O)c3c(Nc4ccc(I)cc4F)n(C)c(=O)c(C)c32)c1 [Trametinib] (partner 0.02 µM)", "LCLC-97TM1", 0.196),
    ("Cc1csc(=NC2CCCCC2)n1/N=C/c1ccc(O)c(O)c1O [MIM1] + Nc1ncn([C@H]2C[C@H](O)[C@@H](CO)O2)c(=O)n1 [Decitabine] (partner 2 µM)", "LCLC-97TM1", 0.214),
]

## Task Need relative viability, item Cc1csc(=NC2CCCCC2)n1/N=C/c1ccc(O)c(O)c1O [MIM1] + COc1cccc2cc(-c3nc([C@H]4CC[C@H](C(=O)O)CC4)n4ncnc(N)c34)[nH]c12 [OSI-027] (partner 0.5 µM)
## Result 0.503

Source of measurements: the supplement of paper PMC10307832
